- ASSAY DETAILS: Induction of anti-CD3/CD28 antibodies-stimulated human T cell activation at 1 uM assessed fold increase in CD25 expression measured by ELISA assay
- Type: functional, T cell line
QUANTITY MEASURED: fold change (FC)
Output spec: single numeric token, no unit.

Here is how some compounds turned out for fold change (FC).
C[C@H](Cc1nncn1C)c1cccc(NC(=O)c2ccnc3ccnn23)c1 | 1.01
Cn1cnnc1C(F)(F)[C@](C)(F)c1cccc(N2Cc3c(cc(CN4CC[C@H](F)C4)cc3C(F)(F)F)C2=O)c1 | 1.51
C[C@H](c1cc2c(c(C(F)(F)F)c1)CN(c1cccc(C3(Cc4nncn4C)COC3)c1)C2=O)N1CC(C)(F)C1 | 1.51
CC1OCC1Oc1cc([C@H](C)Cc2nncn2C)cc(N2Cc3c(cccc3C(F)(F)F)C2=O)n1 (stereo not given in full) | 1.01
Cn1cnnc1[C@H](F)[C@](C)(F)c1cccc(N2Cc3c(cc(C4CC4)cc3C(F)(F)F)C2=O)c1 | 1.01

Supply measured fold change (FC) of C[C@H](Cc1nncn1C)c1cccc(N2Cc3c(cc(CN4CC(O)C4)cc3C(F)(F)F)C2=O)c1 in your reply.
1.31

Please give measured fold change (FC) of the following entry: Cn1cnnc1CC1(c2cccc(N3Cc4c(cc(OC5CNC5)cc4C(F)(F)F)C3=O)c2)COC1
1.01

----------
- ASSAY DETAILS: Induction of activation of human CD56+ CD3- NK cells co-cultured with human K562 cells in 5:1 ratio and assessed as increase in TNF-alpha secretion at 1 uM measured by ELISA assay
- Format: functional, Natural killer cell
List of fold change (FC) values.
Just the number, please, no unit attached.

C[C@H](Cc1nncn1C)c1cccc(N2Cc3c(cc(CN4CC[C@H](F)C4)cc3C(F)(F)F)C2=O)c1 | 2.01

Tell us which fold change (FC) value is on record for C[C@H](Cc1nncn1C)c1cccc(NC(=O)c2cc(C(=O)N3CC[C@H](O)C3)cc(C(F)(F)F)n2)c1
1.01

Query fold change (FC) for Cn1cnnc1C(F)(F)[C@](C)(F)c1cccc(N2Cc3c(cc(CN4CC[C@H](F)C4)cc3C(F)(F)F)C2=O)c1
2.01

Give fold change (FC) for C[C@H](Sc1nncn1C)c1cccc(NC(=O)c2cccc(C(F)(F)F)n2)c1
1.01

----------
- ASSAY DETAILS: Induction of anti-CD3 antibodies-stimulated human exhausted T cell activation assessed fold increase in IFN-gamma secretion measured by ELISA assay; note: reference of the scale not given here
- Type: functional, T cell line
Reported fold change (FC) values are given for each entry in this list.
# answer = number (no unit)

Cc1cc(C(=O)Nc2cccc(C3(Cc4nncn4C)COC3)c2)nc(C2CC2)n1 | 1.41
Cc1n[nH]c(C)c1-c1cc2c(c(C(F)(F)F)c1)CN(c1cccc(C3(Cc4nncn4C)COC3)c1)C2=O | 1.41

Read the next record carefully.
Answer with the recorded fold change (FC) for the compound listed here: Cn1cnnc1C(F)(F)[C@](C)(F)c1cccc(N2Cc3c(cc(N4CCNCC4)cc3C(F)(F)F)C2=O)c1
1.41

----------
- ASSAY DETAILS: Induction of anti-CD3/CD28 antibodies-stimulated human CD4+ T cell activation at 1.11 uM assessed fold increase in cell proliferation measured by flow cytometry analysis
- Format: functional, T cell line
QUANTITY MEASURED: fold change (FC)

Worked cases, answers included:
Cn1cnnc1[C@@H]1C[C@@H]1c1cccc(N2Cc3c(ccnc3C(F)(F)F)C2=O)c1 | <=2
Cn1cnnc1CC1(c2cccc(N3Cc4c(cc(CN5CCC6(CC6)C5)cc4C(F)(F)F)C3=O)c2)COC1 | >4
Cn1cnnc1C(F)(F)[C@](C)(F)c1cccc(N2Cc3c(cc(C(=O)N4CC[C@H](O)C4)cc3C(F)(F)F)C2=O)c1 | 3.01
C[C@@H](Sc1nncn1C)c1cccc(NC(=O)c2cccc(C(F)(F)F)n2)c1 | 3.01
C[C@H](Cc1nncn1C)c1cccc(N2Cc3c(cc(CN4CC(C)(O)C4)cc3C(F)(F)F)C2=O)c1 | >4

Give recorded fold change (FC). C[C@@H](c1cc2c(c(C(F)(F)F)c1)CN(c1cccc(C3(Cc4nncn4C)COC3)c1)C2=O)N1CC[C@H](F)C1
>4

Identify measured fold change (FC) corresponding to C[C@H](Cc1nncn1C)c1cccc(NC(=O)c2nc(C(F)(F)F)c[nH]2)c1
2.01

Give reported fold change (FC) value for C[C@H](Cc1nncn1C)c1cccc(N2Cc3c(cc(CN4CC[C@H](F)C4)cc3C(F)(F)F)C2=O)c1
>4

Fill in reported fold change (FC) for this entry: C[C@H](Cc1nncn1C)c1cccc(NC(=O)c2cccc(CCO)n2)c1
<=2

----------
- ASSAY DETAILS: Induction of anti-CD3/CD28 antibodies-stimulated human T cell activation at 0.3 uM assessed fold increase in IL-2 secretion measured by ELISA assay
- Type: functional, T cell line
QUANTITY MEASURED: fold change (FC)

Cn1cnnc1CC1(c2cccc(N3Cc4c(cc(CN5CC[C@@H](CO)C(F)(F)C5)cc4C(F)(F)F)C3=O)c2)COC1 | 2.51
C[C@H](Cc1nncn1C)c1cccc(NC(=O)c2cccc(C(C)(C)C)n2)c1 | 1.01
Cn1cnnc1CC1(c2cccc(N3Cc4c(cc(N5CCOC5=O)cc4C(F)(F)F)C3=O)c2)COC1 | 1.01
C[C@@H]1CCN(Cc2cc3c(c(C(F)(F)F)c2)CN(c2cccc(C4(Cc5nncn5C)COC4)c2)C3=O)C[C@H]1F (relative stereo) | >=7.5
Cn1cnnc1[C@H](F)C1(c2cccc(N3Cc4c(cc(CN5CCCCC5)cc4C(F)(F)F)C3=O)c2)COC1 | >=7.5

We next turn to a different compound, shown below.
Give the reported fold change (FC) for this compound. C[C@H](Cc1nncn1C)c1cccc(N2Cc3c(cc(CN4CC[C@@H](F)C4)cc3C(F)(F)F)C2=O)c1
5

----------
- ASSAY DETAILS: Induction of anti-CD3/CD28 antibodies-stimulated human T cell activation at 4 uM assessed fold increase in IL-2 secretion measured by ELISA assay
- Type: functional, T cell line
QUANTITY MEASURED: fold change (FC)

CNC(=O)COc1ccc2cnc(C(=O)Nc3cccc([C@H](C)Sc4nncn4C)c3)cc2c1 | 1.01
Cc1ccc(C(=O)Nc2cccc([C@H](C)Sc3nncn3C)c2)nc1C(F)(F)F | 1.01
C[C@H](Cc1nncn1C)c1cccc(N2Cc3c(cc([C@H](C)N4CC[C@H](F)C4)cc3C(F)(F)F)C2=O)c1 | >=7.5
Cn1cnnc1C(F)(F)[C@](C)(F)c1cccc(N2Cc3c(cccc3C(F)(F)F)C2=O)c1 | 2.51
C[C@H](O)CNc1cc([C@H](C)Cc2nncn2C)cc(N2Cc3c(cccc3C(F)(F)F)C2=O)n1 | 1.01

Give the reported value of fold change (FC) for this record: C[C@H](Cc1nncn1C)c1cccc(NC(=O)c2cc(C3CC3)nc(C3CC3)n2)c1
>=7.5

Look up and report measured fold change (FC) for this entry: C[C@@H](c1cccc(N2Cc3c(cccc3C(F)(F)F)C2=O)c1)C(F)(F)c1nncn1C
2.51

Specify fold change (FC) for Cn1cnnc1CC1(c2cccc(N3Cc4c(cc(CN5CC(C)(C#N)C5)cc4C(F)(F)F)C3=O)c2)COC1 and stop.
>=7.5

In one line, give reported fold change (FC) of the entry Cn1cnnc1CC(C)(C)c1cccc(N2Cc3c(cccc3C(F)(F)F)C2=O)c1 .
>=7.5

----------
- ASSAY DETAILS: Induction of activation of human CD56+ CD3- NK cells co-cultured with human K562 cells in 1:1 ratio and assessed as increase in TNF-alpha secretion at 1 uM measured by ELISA assay
- Format: functional, Natural killer cell
fold change (FC) overview

Before answering, review these 3 worked examples.
Cn1cnnc1C(F)(F)[C@](C)(F)c1cccc(N2Cc3c(cc(CN4CC[C@H](F)C4)cc3C(F)(F)F)C2=O)c1 | 2.01
C[C@H](Sc1nncn1C)c1cccc(NC(=O)c2cccc(C(F)(F)F)n2)c1 | 1.01
Cn1cnnc1C(F)(F)[C@](C)(F)c1cccc(N2Cc3c(cc(CN4CCC(F)(F)C4)cc3C(F)(F)F)C2=O)c1 | 1.01

// moving on: another record for fold change (FC)
For the compound C[C@H](Cc1nncn1C)c1cccc(NC(=O)c2cc(C3CC3)cc(C(F)(F)F)n2)c1 , give its measured fold change (FC) value.
2.01

----------
Below, each of the compounds is paired with its reported fold change (FC) value.
- ASSAY DETAILS: Induction of anti-CD3/CD28 antibodies-stimulated human CD4+ T cell activation at 1.11 uM assessed fold increase in CD69 expression measured by flow cytometry analysis
- Type: functional, T cell line
Answer as a number with no unit attached.

Solved cases below.
Cn1cnnc1C(F)(F)[C@](C)(F)c1cccc(N2Cc3c(cc(C(=O)N4CC[C@H](O)C4)cc3C(F)(F)F)C2=O)c1 | 1.201
Cn1cnnc1C(F)(F)C(C)(F)c1cccc(N2Cc3c(cc(CN4CC[C@@H](F)C4)cc3C(F)(F)F)C2=O)c1 (single isomer, unassigned) | 1.201
Cn1cnnc1CC1(c2cccc(NC(=O)c3nc4c(C(F)(F)F)cccc4[nH]3)c2)COC1 | 1.401
COC1CN(Cc2cc3c(c(C(F)(F)F)c2)CN(c2cccc([C@@](C)(F)C(F)(F)c4nncn4C)c2)C3=O)C1 | 1.201

Hello, please tell me recorded fold change (FC) for this one: C[C@H](Cc1nncn1C)c1cccc(NC(=O)c2nc(C(F)(F)F)c[nH]2)c1
1.201
